- protocolDetails: in vitro
- Set-up: MTT cytotoxicity assay, absorbance 450 nm, normal cell line
- conditionContext: human, wi-38 cells; read-out: Cytotoxicity IC50 uM WI38
Items are presented alongside their recorded CC50 at 48 h.
Could you give me the number in µM? Just the number is fine.

INSERT INTO measurements (structuresmilesstring, unitssymbol, reportedvalue) VALUES
  ('CCn1cc(C(=O)O)c(=O)c2cc(F)c(N3CCN(C(=O)CC#N)CC3)cc21', 'µM', 34.1);

The reported value for "CCOC(=O)N1CCN(c2cc3c(cc2F)c(=O)c(C(=O)O)cn3CC)CC1" in terms of CC50 at 48 h is 47.9

The reported value for "CCn1cc(C(=O)O)c(=O)c2cc(F)c(N3CCNCC3)cc21" in terms of CC50 at 48 h is 54.6

The reported value for "CCn1cc(-c2nc3ccccc3s2)c(=O)c2cc(F)c(N3CCN(C(=O)CCl)CC3)cc21" in terms of CC50 at 48 h is 51.2

The reported value for "COc1cccc2c1C(=O)c1c(O)c3c(c(O)c1C2=O)C[C@@](O)(C(=O)CO)C[C@@H]3O[C@H]1C[C@H](N)[C@H](O)[C@H](C)O1" in terms of CC50 at 48 h is 14.1

The reported value for "CCn1cc(-c2nc3ccccc3s2)c(=O)c2cc(F)c(N3CCNCC3)cc21" in terms of CC50 at 48 h is 39.2
